The measured values listed here are drawn from patent US20070020327A1.

Quick list: binding affinity ratio (ratio to standard peptide) per entry.
measuredTarget: HLA-A*0201 (human)
assayProcedure: competition with 125I-labelled standard peptide for purified HLA, gel filtration; ratio = IC50 standard / IC50 test peptide
measuredMetric: binding affinity ratio (ratio to standard peptide)

binder="QVHPQKVTKFM (modifications not checked) [PSA peptide …, position 182, 11 amino acids]" valuemeasured=0.0001
binder="QAAAETLSEV (modifications not checked) [PSM peptide …, position 740, 10 amino acids]" valuemeasured=0.0006
binder="QVLVASRGRAV (modifications not checked) [PSA peptide …, position 35, 11 amino acids]" valuemeasured=0.0001
binder="QLGMEQHYEL (modifications not checked) [PAP peptide …, position 72, 10 amino acids]" valuemeasured=0.0003
binder="QVHPQKVT (modifications not checked) [PSA peptide QVHPQKVT, position 182, 8 amino acids]" valuemeasured=-0.0001
binder="PTQEPALGT (modifications not checked) [PSA peptide …, position 138, 9 amino acids]" valuemeasured=0.0001
binder="QVWLGRHNL (modifications not checked) [Kallikrein (hK2) peptide …, position 72, 9 amino acids]" valuemeasured=0.0001
binder="QVSHSFPHPL (modifications not checked) [PSA peptide …, position 87, 10 amino acids]" valuemeasured=0.0001
